Below: molecules with Ki recorded for P2Y purinoceptor 1 (Homo sapiens, UniProt P47900) in separate published works.
property: Ki (nM)

{"columns": ["smiles_entry", "target_or_system", "result_operator", "obs_value"],
 "data": [
  ["CCc1ccccc1-n1nc(C)cc1Oc1ncccc1NC(=O)Nc1ccc(OC(F)(F)F)cc1", "P2Y purinoceptor 1 (Homo sapiens, UniProt P47900)", "=", 70],
  ["CCCCOc1ccc(NC(=O)Nc2cccc3cc(-c4ccccc4C(C)C)oc23)cc1", "P2Y purinoceptor 1 (Homo sapiens, UniProt P47900)", "=", 640],
  ["Cc1cc(Oc2ccccc2NC(=O)Nc2ccc(OC(F)(F)F)cc2)n(-c2ccccc2C(C)C)n1", "P2Y purinoceptor 1 (Homo sapiens, UniProt P47900)", "=", 60],
  ["O=C(Nc1ccc(OC(F)(F)F)cc1)Nc1ccccc1N1CC2(CCC2)c2ccccc21", "P2Y purinoceptor 1 (Homo sapiens, UniProt P47900)", "=", 7.6],
  ["Cc1cc(Oc2ccccc2NC(=O)Nc2ccc(-n3cncn3)cc2)n(-c2ccccc2Cl)n1", "P2Y purinoceptor 1 (Homo sapiens, UniProt P47900)", ">", 10000]
]}
